# System: RPMI-8226
# procedure_details: NCI tumour cell line growth inhibition, 48 h
Active and inactive are the calls of the source. Cut-off read from the data, not from the text of the source: active = GI50 up to about 1.1 µM and inactive = higher.

compound: O=C(O)CN1CCN(CC(=O)O)CCN(CC(=O)O)CC1
target_or_system: RPMI-8226
GI50: 5.36 µM (inactive)
--
compound: CN(Cc1cc(Cl)cc(Cl)c1)CC(C(=O)c1ccccc1)c1ccccc1 (stereo not given)
target_or_system: RPMI-8226
GI50: 0.1 µM (active)
--
compound: O=C(Cn1c2c(c3ccccc31)CCCC2)N1CCCC1
target_or_system: RPMI-8226
GI50: > 100 µM (inactive)
--
compound: CCOC(=O)C(NC(=O)CC)(Nc1ccc(S(=O)(=O)Nc2ncccn2)cc1)C(F)(F)F (stereo not given)
target_or_system: RPMI-8226
GI50: > 100 µM (inactive)
--
compound: C=CCC1(CN(C)C)CC/C(=C\c2ccc(OC)cc2)C1=O (stereo not given)
target_or_system: RPMI-8226
GI50: 23.9 µM (inactive)
--
compound: O=C(c1ccccc1)c1nc2c(Cl)ccc(Cl)c2cc1C(Br)Br
target_or_system: RPMI-8226
GI50: 0.284 µM (active)
--
compound: CC1=NN(C(=O)CSc2nnc(SCC(=O)N3N=C(C)CC3(O)c3ccccc3)s2)C(O)(c2ccccc2)C1 (stereo not given)
target_or_system: RPMI-8226
GI50: 15.5 µM (inactive)
--
compound: O=C1C2=Nc3ccccc3C(O)N2c2ccccc21 (stereo not given)
target_or_system: RPMI-8226
GI50: 53.8 µM (inactive)
--
compound: CCOC(=O)CCC(NC(=O)c1ccc(Oc2nc3ccccc3nc2-c2ccccc2)cc1)C(=O)OCC (stereo not given)
target_or_system: RPMI-8226
GI50: 37.6 µM (inactive)
--
compound: CCCCc1c2c(nc3c1CC/C(=C\c1ccc([N+](=O)[O-])cc1)C3=O)CCCC2
target_or_system: RPMI-8226
GI50: 1.7 µM (inactive)

###

# Tested on: NCI-H226
# procedure_details: NCI tumour cell line growth inhibition, 48 h
The source made the active and inactive calls. No stated cut-off is given here; in the data, active = GI50 up to about 1.1 µM and inactive = higher.

molecule: CC(=O)OCCC[C@@H]1C(=C(C)C)CCC2[C@@]1(C)CC[C@@]1(C)C[C@](C)(CCC=C(C)C)CC[C@]21C (stereo partly drawn)
target_or_system: NCI-H226
GI50: > 100 µM (inactive)

molecule: COC(OC)(c1ccccc1)C(I)I
target_or_system: NCI-H226
GI50: 20.8 µM (inactive)

molecule: CCCCCc1c(Cl)nc(Cl)nc1Cl
target_or_system: NCI-H226
GI50: 2 µM (inactive)

###

# Tested on: RPMI-8226
# procedure_details: NCI tumour cell line growth inhibition, 48 h
Active and inactive are the calls of the source. No stated cut-off is given here; in the data, active = GI50 up to about 1.1 µM and inactive = higher.
The entries below come with measured GI50 values attached.

compound: COC(=O)[C@H](Cc1ccccc1)NC(=O)c1ccc(CNC(=O)/C=C/c2ccc(-c3ccccc3)cc2)cc1
GI50: > 100 µM (inactive)

compound: Nc1ccc2ncc(Nc3ccc(F)cc3)nc2c1
GI50: 87.3 µM (inactive)

compound: CC1(c2ccc(Cl)cc2)CC(c2ccc(Cl)cc2)=C(C#N)C(=C(C#N)C#N)N1 (stereo not given)
GI50: 8.77 µM (inactive)

compound: CCC1OC2C(CC=C(C)C)=C3OC(C)(O)C(C)(CC)C(OC(=O)c4ccccc4)C3=C3OC(=O)C=C1C32 (stereo not given)
GI50: 24.7 µM (inactive)

compound: O=C(O)c1nc2ccccc2nc1Nc1ccc(F)cc1
GI50: 23.1 µM (inactive)

compound: CCN(CC)P1(=S)Oc2ccc3ccccc3c2-c2c(ccc3ccccc23)O1
GI50: > 100 µM (inactive)

compound: CCOc1ccc2nc(NC(=O)C(=O)C(C(=O)c3ccccc3F)C3OC(=O)c4ccccc43)sc2c1 (stereo not given)
GI50: 19.1 µM (inactive)

compound: COc1ccccc1C1c2cc3c(cc2OC(N2CCCC2)C1C)OCO3 (stereo not given)
GI50: 14.8 µM (inactive)

compound: COC1OC(CO)C(O)C(O)C1Br (stereo not given)
GI50: > 100 µM (inactive)

compound: Cc1ccc(C2SC(=N)Nc3c2c(C)nn3C(=O)c2ccc(Cl)cc2)cc1 (stereo not given)
GI50: > 10 µM (inactive)

// data source = ChEMBL document CHEMBL1201862
